Target: COX-1 (Homo sapiens)
Construct: Remove the platelet-rich plasma (PRP) and dilute the PRP 1:20 with 0.9% NaCl; endogenous in cells
Sequence (P23219 24-599): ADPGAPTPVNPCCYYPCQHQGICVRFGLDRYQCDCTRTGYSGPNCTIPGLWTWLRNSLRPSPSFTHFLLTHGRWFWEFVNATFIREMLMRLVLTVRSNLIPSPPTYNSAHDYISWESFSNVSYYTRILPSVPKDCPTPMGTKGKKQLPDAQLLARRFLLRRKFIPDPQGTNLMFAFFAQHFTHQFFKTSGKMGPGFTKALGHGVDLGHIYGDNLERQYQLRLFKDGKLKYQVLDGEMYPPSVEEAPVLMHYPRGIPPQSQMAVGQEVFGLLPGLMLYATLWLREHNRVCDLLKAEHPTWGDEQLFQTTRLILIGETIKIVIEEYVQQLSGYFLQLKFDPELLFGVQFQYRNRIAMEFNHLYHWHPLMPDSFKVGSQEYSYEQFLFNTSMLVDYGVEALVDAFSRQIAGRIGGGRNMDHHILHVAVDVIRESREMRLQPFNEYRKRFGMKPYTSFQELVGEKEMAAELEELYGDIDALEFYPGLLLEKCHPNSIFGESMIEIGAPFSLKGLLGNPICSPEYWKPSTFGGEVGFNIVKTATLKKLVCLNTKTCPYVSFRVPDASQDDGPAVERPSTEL
Assay: Human platelet thromboxane B2 production (via COX-1)
Details: human platelets, TXB2 production; read-out: P5: COX 1 Human Platelet IC50
Method: HUMAN […] THROMBOXANE B2 PRODUCTION (via COX-1) Procedure 5 was used to determine thromboxane B2 (TXB2) production (via COX-1) in human platelets as follows: Draw blood from one volunteer into heparinized tubes then spin at RT for 15 to 20 minutes at 1,000 RPM. Remove the platelet-rich plasma (PRP) and dilute the PRP 1:20 with 0.9% NaCl containing 14.4U heparin/mL. Add 180 μL of the diluted PRP to each well of a 96-well plate and incubate at 37° C. for 5 minutes. […]
Result type: IC50

>  <Compound>
COc1ccc(-n2nc(-c3ccc(F)cc3)c3c2CCCCC3)cc1 [Example 9]

>  <Experimental result>
> 10 µM

$$$$
>  <Compound>
c1ccc(-c2nn(-c3ccccc3)c3c2CCCC3)cc1 [Example 6, 1,3-Diphenyl-cyclohexa-[1,2-d]-pyrazole]

>  <Experimental result>
0.49 µM

$$$$
>  <Compound>
CS(=O)(=O)c1ccc(-n2nc3c(c2-c2ccc(Cl)cc2)CCCCC3)cc1 [Example 13-1d]

>  <Experimental result>
> 10 µM

$$$$
>  <Compound>
CS(=O)(=O)c1ccc(-n2nc3c(c2-c2ccc(F)cc2)CCC2OC32)cc1 (stereo not shown) [Example 48e]

>  <Experimental result>
> 10 µM

$$$$

---

Target: human prostaglandin H2 synthase type II (COX-2) (Homo sapiens, UniProt P35354)
Sequence (P35354 18-604): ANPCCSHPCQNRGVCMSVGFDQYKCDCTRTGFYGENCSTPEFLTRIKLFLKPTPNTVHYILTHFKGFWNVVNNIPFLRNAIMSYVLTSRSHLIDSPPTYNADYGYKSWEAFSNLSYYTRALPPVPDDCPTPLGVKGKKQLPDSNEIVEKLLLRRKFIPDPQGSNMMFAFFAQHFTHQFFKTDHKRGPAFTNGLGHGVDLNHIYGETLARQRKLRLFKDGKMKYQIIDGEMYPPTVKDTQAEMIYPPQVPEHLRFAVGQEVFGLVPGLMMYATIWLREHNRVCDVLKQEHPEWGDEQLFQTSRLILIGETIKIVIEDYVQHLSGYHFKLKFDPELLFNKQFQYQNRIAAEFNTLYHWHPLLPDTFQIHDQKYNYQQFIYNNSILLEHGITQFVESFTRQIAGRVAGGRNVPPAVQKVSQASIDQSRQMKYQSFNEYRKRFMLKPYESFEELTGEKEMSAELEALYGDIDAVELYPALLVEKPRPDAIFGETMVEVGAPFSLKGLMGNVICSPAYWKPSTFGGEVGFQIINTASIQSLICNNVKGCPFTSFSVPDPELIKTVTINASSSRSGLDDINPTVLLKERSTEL
Assay: Human prostaglandin H2 synthase type II (COX-2) whole cell assay (ECV-304 cells, PGE2 by radioimmunoassay)
Format: cell-based
Parameters: endogenous in cells; host or cells: ECV-304
Settings: read-out: P2: COX 2 Whole Cell IC50
Result type: log10(IC50) (log10 of the value in µM)

>  <Molecule>
CS(=O)(=O)c1ccc(-n2nc3ccccc3c2-c2ccc(Cl)cc2)cc1 [Example 32d]

>  <log10(IC50)>
-0.01

$$$$
>  <Molecule>
Clc1ccc(-c2nn(-c3ccc(Cl)cc3)c3c2CCCCC3)cc1

>  <log10(IC50)>
1.00

$$$$
>  <Molecule>
COc1ccc(-n2nc(-c3ccc(F)cc3)c3c2CCCCC3)cc1

>  <log10(IC50)>
0.40

$$$$
>  <Molecule>
CS(=O)(=O)c1ccc(-n2nc3c(c2-c2ccc(C(F)(F)F)cc2)CCC=C3)cc1 [Example 32c]

>  <log10(IC50)>
-0.21

$$$$
>  <Molecule>
CS(=O)(=O)c1ccc(-n2nc3c(c2-c2ccc(Cl)cc2)CCCCC3)cc1

>  <log10(IC50)>
0.97

$$$$
>  <Molecule>
CS(=O)(=O)c1ccc(-n2nc3c(c2-c2ccc(Cl)cc2)CCC(O)C3)cc1 (centres unmarked) [Example 49d]

>  <log10(IC50)>
1.00

$$$$
>  <Molecule>
CS(=O)(=O)c1ccc(-n2nc3c(c2-c2ccc(Cl)cc2)CCC=C3)cc1

>  <log10(IC50)>
0.37

$$$$

---

// reported pIC50 for each item listed
target: COX-1 (Homo sapiens); construct: Remove the platelet-rich plasma (PRP) and dilute the PRP 1:20 with 0.9% NaCl; endogenous in cells; test: Human platelet thromboxane B2 production (via COX-1); conditions: human platelets, TXB2 production; read-out: P5: COX 1 Human Platelet IC50
pIC50: −log10 of the molar value.

>  <Compound>
Cc1ccc(-n2nc3c(c2-c2ccc(Cl)cc2)CCCCC3)cc1

>  <Result qualifier>
=

>  <pIC50>
5.00

$$$$
>  <Compound>
CS(=O)(=O)c1ccc(-c2c3ccccc3nn2-c2ccc(F)cc2)cc1 [Example 32e]

>  <Result qualifier>
<

>  <pIC50>
5.00

$$$$
>  <Compound>
Fc1ccc(-n2nc(-c3ccc(Cl)cc3)c3c2-c2c([nH]c4ccc(F)cc24)CC3)cc1 [Example 32f]

>  <Result qualifier>
=

>  <pIC50>
6.19

$$$$
>  <Compound>
Clc1ccc(-c2nn(-c3ccccc3)c3c2CCCCC3)cc1

>  <Result qualifier>
=

>  <pIC50>
6.00

$$$$
>  <Compound>
CS(=O)(=O)c1ccc(-n2nc(-c3ccc(F)cc3)c3c2C=CCC3)cc1

>  <Result qualifier>
<

>  <pIC50>
5.00

$$$$
>  <Compound>
Clc1ccc(-c2c3c(nn2-c2ccccc2)CCCC3)cc1

>  <Result qualifier>
<

>  <pIC50>
5.00

$$$$
>  <Compound>
Clc1ccc(-c2c3c(nn2-c2ccccc2)CCCCC3)cc1

>  <Result qualifier>
=

>  <pIC50>
5.26

$$$$
>  <Compound>
Clc1ccc(-c2nn(-c3ccccc3)c3c2CCC3)cc1

>  <Result qualifier>
=

>  <pIC50>
5.00

$$$$
>  <Compound>
CS(=O)(=O)c1ccc(-n2nc3c(c2-c2ccc(Cl)cc2)CCC=C3)cc1

>  <Result qualifier>
<

>  <pIC50>
5.00

$$$$
>  <Compound>
CS(=O)(=O)c1ccc(-n2nc3c(c2-c2ccc(Cl)cc2)CCC(=O)C3)cc1 [Example 52b]

>  <Result qualifier>
<

>  <pIC50>
5.00

$$$$
>  <Compound>
Fc1ccc(-n2nc(-c3ccc(Cl)cc3)c3c2CCCCC3)cc1

>  <Result qualifier>
<

>  <pIC50>
5.00

$$$$
>  <Compound>
CS(=O)(=O)c1ccc(-n2nc3c(c2-c2ccc(Cl)cc2)CCCC3)cc1 [Example 30d]

>  <Result qualifier>
<

>  <pIC50>
5.00

$$$$

---

target: human prostaglandin H2 synthase type II (COX-2) (Homo sapiens, UniProt P35354); assay: Human prostaglandin H2 synthase type II (COX-2) whole cell assay (ECV-304 cells, PGE2 by radioimmunoassay); type: cell-based; parameters: endogenous in cells; host or cells: ECV-304; settings: read-out: P2: COX 2 Whole Cell IC50
pIC50: −log10 of the molar value.

>  <Compound>
COc1ccc(-n2nc(-c3ccc(Cl)cc3)c3c2CCCCC3)cc1

>  <Target system>
human prostaglandin H2 synthase type II (COX-2) (Homo sapiens, UniProt P35354)

>  <Result qualifier>
=

>  <pIC50>
5.81

$$$$
>  <Compound>
Clc1ccc(-c2nn(-c3ccccc3)c3c2CCC3)cc1

>  <Target system>
human prostaglandin H2 synthase type II (COX-2) (Homo sapiens, UniProt P35354)

>  <Result qualifier>
=

>  <pIC50>
5.59

$$$$
>  <Compound>
c1ccc(-c2nn(-c3ccccc3)c3c2CCCC3)cc1 [Example 6, 1,3-Diphenyl-cyclohexa-[1,2-d]-pyrazole]

>  <Target system>
human prostaglandin H2 synthase type II (COX-2) (Homo sapiens, UniProt P35354)

>  <Result qualifier>
=

>  <pIC50>
6.24

$$$$
>  <Compound>
COc1ccc(-n2nc3c(c2-c2ccc(Cl)cc2)CCCCC3)cc1

>  <Target system>
human prostaglandin H2 synthase type II (COX-2) (Homo sapiens, UniProt P35354)

>  <Result qualifier>
=

>  <pIC50>
4.71

$$$$
>  <Compound>
c1ccc(-c2nn(-c3ccccc3)c3c2CCCCC3)cc1

>  <Target system>
human prostaglandin H2 synthase type II (COX-2) (Homo sapiens, UniProt P35354)

>  <Result qualifier>
=

>  <pIC50>
6.77

$$$$
>  <Compound>
CS(=O)(=O)c1ccc(-n2nc(-c3ccc(F)cc3)c3c2C=CCC3)cc1

>  <Target system>
human prostaglandin H2 synthase type II (COX-2) (Homo sapiens, UniProt P35354)

>  <Result qualifier>
<

>  <pIC50>
5.00

$$$$
>  <Compound>
CS(=O)(=O)c1ccc(-n2nc3c(c2-c2ccc(F)cc2)CCCCC3)cc1

>  <Target system>
human prostaglandin H2 synthase type II (COX-2) (Homo sapiens, UniProt P35354)

>  <Result qualifier>
=

>  <pIC50>
5.00

$$$$
>  <Compound>
CS(=O)(=O)c1ccc(-c2c3ccccc3nn2-c2ccc(F)cc2)cc1 [Example 32e]

>  <Target system>
human prostaglandin H2 synthase type II (COX-2) (Homo sapiens, UniProt P35354)

>  <Result qualifier>
=

>  <pIC50>
6.49

$$$$
>  <Compound>
Clc1ccc(-c2c3c(nn2-c2ccccc2)CCCC3)cc1

>  <Target system>
human prostaglandin H2 synthase type II (COX-2) (Homo sapiens, UniProt P35354)

>  <Result qualifier>
=

>  <pIC50>
6.24

$$$$
